- assayedSystem: Doublecortin-like kinase 1 (DCLK1) (Homo sapiens)
- Sequence (O15075 390-647 limits assumed): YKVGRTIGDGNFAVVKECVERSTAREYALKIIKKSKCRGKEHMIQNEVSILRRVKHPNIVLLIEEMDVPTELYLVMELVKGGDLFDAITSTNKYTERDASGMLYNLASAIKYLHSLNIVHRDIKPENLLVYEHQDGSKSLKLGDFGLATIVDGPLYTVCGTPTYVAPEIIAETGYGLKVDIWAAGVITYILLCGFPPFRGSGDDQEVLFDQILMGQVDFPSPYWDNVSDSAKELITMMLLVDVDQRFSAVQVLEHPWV
readoutName: pIC50
Scale: pIC50 equals -log10([C]), with [C] in mol/L.

**Q:** Requested read-out: pIC50. Entry: `COc1cc(N2CCN(C)CC2)ccc1Nc1ncc2c(n1)N(C)c1ccccc1C(=O)N2CC(F)(F)F`
**A:** 7.26
